Entries annotated with measured Kd
Biological target: T1, PUF4 RNA-binding domain (Saccharomyces cerevisiae, UniProt P25339 537-888)
T1 sequence: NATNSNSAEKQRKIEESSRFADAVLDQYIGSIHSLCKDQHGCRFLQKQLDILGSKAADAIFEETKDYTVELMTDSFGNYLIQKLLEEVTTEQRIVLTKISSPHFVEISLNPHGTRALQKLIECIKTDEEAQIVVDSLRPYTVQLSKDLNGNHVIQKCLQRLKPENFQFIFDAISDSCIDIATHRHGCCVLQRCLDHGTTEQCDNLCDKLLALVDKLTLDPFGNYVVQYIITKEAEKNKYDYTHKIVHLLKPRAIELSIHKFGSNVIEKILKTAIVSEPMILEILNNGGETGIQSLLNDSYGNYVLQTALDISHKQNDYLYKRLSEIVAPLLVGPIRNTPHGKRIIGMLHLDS
Experiment: Mg; RNA-MaP; 20 mM Na-HEPES pH 7.4, 30 mM KOAc, 0.75 mM MgCl2, 0.1% Tween-20, 5% glycerol, 0.1 mg/mL BSA, 2 mM DTT; 25 C; 0.0125-409.6 nM protein
Details: tags: N-His6-TEV cleaved; C-SNAP kept, Cy3B-labelled; label: tethered on chip by stalled RNA polymerase

| binder | Kd (nM) |
| --- | --- |
| Ic_S2_P4E.1_K4.1_C4.1_H4.1_A4.1_[A6T]_[T7C]_F4.1_[T8G]_[A9T]_T4.1 (ssRNA) RNA: UUUGAUUAAUAUGAUAUCGUUCUUUCUUGUAUUCGUUUCUUUCUCGAUAUCAUAUUAAUCUUU | 112 |
| Ib_S2_P4E.1_K4.1_C4.1_H4.1_[T1C]_A4.1_[T7G]_F4.1_T4.1 (ssRNA) RNA: UUUGAUUAAUAUGAUAUCGUUCUUUCUCGUAUAGUAUUCUUUCUCGAUAUCAUAUUAAUCUUU | 132 |
| Ic_S4_P4E.1_K4.1_C4.1_H4.1_A4.1_[T5C]_[T7A]_F4.1_[T8C]_[A9C]_T4.1 (ssRNA) RNA: UUUGACAACUGAUCGUUCUUUCUUGUACAACCUUCUUUCUCGAUCAGUUGUCUUU | 99.9 |
| UCUCUUUGUAUCACAUUCUCUU (ssRNA) [Ic_S1_P5E.1_K5.1_C5.1_H5.1_A5.1_[T6C]_F5.1_[T8C]_[T9A]_[A10T]_T5.1] | 106 |

Numbers sourced from paper PMC9352680.
